# maps each entry to its MIC99
System: Mycobacterium avium
Test: Antimycobacterial activity against Mycobacterium avium CNCTC My 330/88 after 21 days by microdilution method
Type: functional
Details: CNCTC My 330/88, 504 h
Give your result in µM as a bare value.

Worked set:
[[record]]
molecular_string = "Nc1cc(N)cc(CSc2nnc(-c3ccc([N+](=O)[O-])cc3)s2)c1"
system_under_test = "Mycobacterium avium"
reported_metric = "MIC99"
u = "µM"
result_value = 250

[[record]]
molecular_string = "Cc1ccc(-c2nnc(SCc3cc([N+](=O)[O-])cc([N+](=O)[O-])c3)o2)cc1"
system_under_test = "Mycobacterium avium"
reported_metric = "MIC99"
u = "µM"
result_value = 16

[[record]]
molecular_string = "O=[N+]([O-])c1cc(CSc2nnc(-c3ccc(Cl)cc3Cl)o2)cc([N+](=O)[O-])c1"
system_under_test = "Mycobacterium avium"
reported_metric = "MIC99"
u = "µM"
result_value = 32


IN: Retrieve MIC99 on Mycobacterium avium; query O=[N+]([O-])c1ccc(CSc2nnc(-c3ccc([N+](=O)[O-])cc3)s2)cc1
OUT: 250
